Origin of values: PubChem BioAssay AID1996

Overview of reported solubility kinetic across a group of molecules:
conditions: buffer; pH 7.4; 200.0 µM
readout kind: solubility kinetic (µg/mL)

molecule=CC(C)CCNC(=O)COc1cccc2c1OC(C)(C)C2 units_label=µg/mL result_qualifier== assay_value=43.4
molecule=Cc1nc(C)c(C(=O)O)c(-c2ccsc2)c1C(=O)O units_label=µg/mL result_qualifier=> assay_value=41.6
molecule=CCOC(=O)c1c(C)nsc1NC(=O)c1ccco1 units_label=µg/mL result_qualifier== assay_value=1.6
molecule="CC(OC(=O)C1=COCCO1)C(=O)Nc1ccc(Cl)cn1 (stereo not given)" units_label=µg/mL result_qualifier=> assay_value=46.9
molecule=O=C(COc1ccc(Cl)cc1Cl)N1CCNC1=O units_label=µg/mL result_qualifier== assay_value=31
molecule=COc1cc(CN2CC=C(c3ccc(F)cc3)CC2)cc(OC)c1 units_label=µg/mL result_qualifier== assay_value=10.4
molecule=CCCCn1c(CCCNC(=O)c2ccco2)nc2ccccc21 units_label=µg/mL result_qualifier=> assay_value=48.8
molecule=CC(=O)Nc1ccc(C(=O)OCC(=O)N(C)C2CCCCC2)cc1 units_label=µg/mL result_qualifier== assay_value=36
molecule="COc1cccc(NC(=S)N2CCC(c3ccc(C)cc3)C2)c1 (stereo not given)" units_label=µg/mL result_qualifier== assay_value=6.9
molecule=CC(=O)c1ccccc1OC(=O)COc1ccc([N+](=O)[O-])cc1 units_label=µg/mL result_qualifier=> assay_value=47.3
molecule=COc1cc(N)c(Cl)cc1C(=O)OCC(=O)N1c2ccccc2NC(=O)C1(C)C units_label=µg/mL result_qualifier== assay_value=5.5
molecule=O=C(O)C(=O)O.Oc1ccccc1CNCCCN1CCOCC1 units_label=µg/mL result_qualifier== assay_value=41.5
molecule=Cc1ccc(OCC(=O)O/N=C(\N)c2ccncc2)cc1C units_label=µg/mL result_qualifier== assay_value=18.6
molecule=COc1ccc(Br)cc1C(=O)Nc1ccccc1N1CCCC1 units_label=µg/mL result_qualifier=< assay_value=0.4
molecule="CCc1ccc(NC(=O)CN2CC(c3ccccc3)CC2=O)cc1 (stereo not given)" units_label=µg/mL result_qualifier=> assay_value=48.4
molecule=O=c1oc(-c2ccccc2Br)nc2ccccc12 units_label=µg/mL result_qualifier== assay_value=5.2
molecule=Cc1ccc(OCC(=O)Nc2cccnc2Cl)cc1C units_label=µg/mL result_qualifier== assay_value=0.8
molecule=N#Cc1cccc(NS(=O)(=O)c2ccccc2Cl)c1 units_label=µg/mL result_qualifier=> assay_value=43.9
molecule=Cc1cc(S(=O)(=O)NCc2ccco2)c(C)cc1Cl units_label=µg/mL result_qualifier=> assay_value=45
molecule=O=C(CN1CCN(Cc2ccccc2Cl)C1=O)NCc1ccccn1 units_label=µg/mL result_qualifier=> assay_value=53.8
molecule="Cc1ccc(-n2c(SCC(=O)NCC3CCCO3)nc3ccccc3c2=O)cc1 (stereo not given)" units_label=µg/mL result_qualifier== assay_value=32.4
molecule=N=C1c2ccccc2CN1c1ccc(F)c([N+](=O)[O-])c1 units_label=µg/mL result_qualifier=> assay_value=40.7
molecule=O=C(Nc1ccc(F)cc1)c1ccc(S(=O)(=O)N2CCCC2)cc1 units_label=µg/mL result_qualifier== assay_value=4.4
molecule=CC(=O)N(CCc1cccc(C)c1)Cc1cc2cc(C)ccc2[nH]c1=O units_label=µg/mL result_qualifier== assay_value=1.1
molecule=O=S(=O)(NC1=NCCCCC1)c1cc(F)ccc1F units_label=µg/mL result_qualifier=> assay_value=43.2

---

Overview of reported solubility kinetic across a group of molecules:
conditions: buffer; pH 7.4; 200.0 µM
readout kind: solubility kinetic (µg/mL)

molecule=CC(C)NCC(=O)C12CC3CC(CC(C3)C1)C2 result_qualifier== assay_value=28.7
molecule=O=C(NCc1ccco1)c1cccc(Br)c1 result_qualifier== assay_value=39
molecule=C=CCSc1nc(C)cc(C(=O)OCC)c1C#N result_qualifier== assay_value=8.6
molecule="CC(=O)C(C)Oc1ccc(Cc2ncc(C(F)(F)F)cc2Cl)cc1 (configuration not stated)" result_qualifier== assay_value=13.1
molecule=C=C(C)c1cccc(C(C)(C)NC(=O)Nc2ccc(OC)nc2)c1 result_qualifier== assay_value=14
molecule=O=S(=O)(Nc1ccc(Nc2ccccc2)cc1)c1ccc(F)cc1 result_qualifier== assay_value=3.5
molecule=CS(=O)(=O)c1ccc2nc(NC(=O)C3CC3)sc2c1 result_qualifier== assay_value=25.3
molecule="Cc1nnc(NC(=O)C(C)Sc2nnc(-c3ccco3)n2C)s1 (configuration not stated)" result_qualifier=> assay_value=52.6
molecule="Cc1cc(C(=O)OCC(=O)NC2CCCC(C)C2C)c(C)o1 (configuration not stated)" result_qualifier== assay_value=12.4
molecule=O=C(COc1ccc(Cl)cc1Cl)NC(=O)c1ccccc1 result_qualifier=< assay_value=0.7
molecule=S=c1[nH]c2cc3ccccc3cc2[nH]1 result_qualifier== assay_value=27.9
molecule=Cc1csc(NC(=O)c2ccncc2)n1 result_qualifier== assay_value=17.9

---

conditions: buffer; pH 7.4; 200.0 µM
readout kind: solubility kinetic

molecule=O=c1cc(Cl)[nH]c(=O)n1Cc1ccccc1 assay_value="> 35.5 µg/mL"
molecule=CC(=O)c1ccc(N2CCN(c3ncccn3)CC2)cc1 assay_value="7.7 µg/mL"
molecule=COCCNC(=O)c1cc2c(s1)-c1ccc(Cl)cc1SC2 assay_value="4.5 µg/mL"
molecule=N#Cc1ccccc1Cn1c(=O)oc2ccccc21 assay_value="30.9 µg/mL"
molecule=Cc1ccc(NC(=O)CN(C)C(=O)c2ccc(Cl)c(S(=O)(=O)NCc3ccco3)c2)cc1 assay_value="9 µg/mL"
molecule="CNC(=O)C1=C(C)Nc2nc3ccccc3n2C1c1ccc(F)cc1 (configuration not stated)" assay_value="48.9 µg/mL"
molecule="CCC(C)NC(=O)c1ccc(CSCc2ccccc2Cl)o1 (configuration not stated)" assay_value="30.7 µg/mL"
molecule=O=C(Nc1ccc2c(c1)OCO2)Nc1ccccc1F assay_value="2.7 µg/mL"
molecule=CCc1nc2ccccc2c(C(=O)Nc2ccc(C)cc2)c1C assay_value="< 0.3 µg/mL"
molecule=COc1ccc(N2CCN(C(=O)Cc3coc4cc(C)ccc34)CC2)cc1 assay_value="25.9 µg/mL"
molecule=CCOc1ccc(NS(=O)(=O)c2csc(C(N)=O)c2)cc1 assay_value="46 µg/mL"
molecule=Cc1csc(NC(=O)CSc2ccccc2F)n1 assay_value="> 42.4 µg/mL"

---

conditions: buffer; pH 7.4; 200.0 µM
Overview of reported solubility kinetic across a group of compounds:
readout kind: solubility kinetic

compound="CC(NC(=O)Nc1ccc(Cl)cc1)c1ccccc1 (stereo unspecified)" assay_value="1.9 µg/mL"
compound=CCCCCCCOc1ccc(C(=O)Nc2cccnc2)cc1 assay_value="< 0.3 µg/mL"
compound=COc1cc(C(=O)NCCOc2ccccc2C)cc(OC)c1OC assay_value="48.8 µg/mL"
compound="CCOc1ccccc1NC(=O)C(C)SCc1ccccc1 (stereo unspecified)" assay_value="1.4 µg/mL"
compound=CCN(C(=O)Cc1c(C(=O)O)n(CC)c2ccccc12)c1ccccc1C assay_value="42.7 µg/mL"
compound="Cc1ccc(/C(N)=N/OC(=O)C(C)c2ccc([N+](=O)[O-])cc2)cc1 (stereo unspecified)" assay_value="8.3 µg/mL"
compound=CC(=O)Nc1ccc2sccc2c1 assay_value="27.9 µg/mL"
compound=CCCCNC(=S)Nc1ccc(C(F)(F)F)cc1 assay_value="15.7 µg/mL"
compound=Cc1sc2nc(-c3cccs3)oc(=O)c2c1C assay_value="< 0.6 µg/mL"
compound=O=c1[nH]c(/C=C\c2ccc(O)c(Cl)c2)nc(O)c1[N+](=O)[O-] assay_value="44 µg/mL"
compound="CC1CCCCC1NC(=O)c1ccncc1 (stereo unspecified)" assay_value="> 32.7 µg/mL"
compound="CC1Cc2ccccc2N1C(=O)c1ccc2nccnc2c1 (stereo unspecified)" assay_value="> 43.4 µg/mL"
compound=CCCCn1c(=O)c(CCC(=O)O)nc2ccccc21 assay_value="31.8 µg/mL"
compound=NC(=O)C1CCN(c2oc(-c3cccs3)nc2S(=O)(=O)c2ccc(Br)cc2)CC1 assay_value="17.6 µg/mL"
compound=Cn1c(N2CCOCC2)cc(=O)n(C)c1=O assay_value="29.3 µg/mL"
compound=CC(=O)NCc1ccc(S(=O)(=O)N2CCCN(C)CC2)cc1.Cl assay_value="> 54.3 µg/mL"
compound=CC(=O)Nc1ccc(SCC(=O)Nc2ccccc2N2CCOCC2)cc1 assay_value="3.9 µg/mL"
compound=COCCNC(=O)/C(C#N)=C/c1ccc(O)cc1 assay_value="> 36.9 µg/mL"
compound=Cc1ccc(NC(=O)O/N=C/c2ccc(F)cc2)cc1 assay_value="23.1 µg/mL"
compound="O=C(COC(=O)c1ccco1)NC1CCCc2ccccc21 (stereo unspecified)" assay_value="> 44.9 µg/mL"
compound=Cc1ccccc1NC(=O)CCN1CCCC1.Cl assay_value="> 40.3 µg/mL"
compound=COc1ccc(C=O)cc1OC(=O)N1CCOCC1 assay_value="> 39.8 µg/mL"
compound=CCSc1ccccc1C(=O)Nc1ccc([N+](=O)[O-])cc1OC assay_value="1.4 µg/mL"
compound=Cc1ccccc1Nc1c(-c2ccccc2)nc2ncccn12 assay_value="8.1 µg/mL"
compound=COc1cccc(-c2nc(N)nc(SC)c2C#N)c1 assay_value="0.6 µg/mL"
compound=O=C(Nc1cccc([N+](=O)[O-])c1)Nc1cccs1 assay_value="32.3 µg/mL"
